target: T1, CBD-toxin A-Fc (Clostridium difficile, UniProt P16154 1848-2710)
T1 construct: also called CBD-A; C-term Toxin A
assay explanation: SPR Biacore, CBD-A-Fc captured, 500 nM mAb flowed
Documented binding (RU) across a set of binders
State the answer as a number, implicitly in RU.

Sample records with binding (RU):
| binder | binding (RU) |
| --- | --- |
| H1H3324P (antibody, V domains shown) VH: EVQLVESGGGLVQPGGSLRLSCAASGFTFSSYDMHWVRQVIGKGLEWVSAIGTVGDTYYAGSVKGRFTISRENAKNSLYLQMNSLRAGDTAVYYCARDRGGANIYSFYYGMDVWGQGTTVTVSS VL: DIQMTQSPSSLSVSVGDRVTITCRASQDISNYLAWYQQKPGKVPKLLIYAASTLQSGVPSRFSGSGSGTDFTLTISSLQPEDVATYFCQKYNSAPFTFGPGTKVDIKR | 224 |
| H1H3343P (antibody, V domains shown) VH: EVQLVESGGGLVQPGGSLRLSCVASGFNFRIYAMSWVRQAPGKGPEWVSGISGSGDNTYYAASVKGRFTVSRDNSKNTLYLQMTSLRAEDTAVFYCARGWELLNYWGQGTLVTVSS VL: DIQMTQSPSSLSASVGDRVTITCRASLDIGNFLAWFQQKPGTAPKSLIYSASSLQTGVPSKFSGSGSGTDFTLTISSLQPEDFATYYCQQYNSYPPTFGPGTKVDIKR | 3 |

# input for lookup
Problem: What does the data say about its binding (RU)? Entry: H1H3330P (antibody, V domains shown) VH: QVQLVESGGGVVQPGGSLRLSCAASGFTFSSYAMHWVRQAPGKGLEWVAIIWFDGSNEDYADSVKGRFTISRDNSKNMVYLQINSLRAEDTAVYYCARSANWNYEGGPLFDYWGQGTLVTVSS VL: DIQMTQSPSSLSASVGDRVTITCRASQTISTFLNWYQQKPGKGPELLIYTASSLQSGVPSRFSGSGSGTDFALTISSLQPEDFATYYCQQNYNDPPTFGQGTRLEIKR
Solution: 515
